pIC50: −log10 of the molar value.
Several reports have described pIC50 for UniProt Q9NZQ7; a selection of those results is presented here.

Recorded pIC50, per entry:
compound | readoutType | reportedResult
COc1nc(-c2cccc(-c3cccc(NC(=O)c4cn(C)c(=O)n(C)c4=O)c3Cl)c2Cl)cnc1CN1CCCC[C@H]1C(=O)O | pIC50 | > 8.00
COc1nc(-c2cccc(-c3cccc(Nc4nc(C)nc5cccnc45)c3C)c2Cl)ccc1CN[C@@H]1CCOC[C@@H]1O | pIC50 | > 8.00
COc1nc(OCc2cccc(-c3cccc(COc4ccc(CN5CCCC(C(N)=O)C5)c(OC)n4)c3C)c2C)ccc1CN1CCCC(C(N)=O)C1 (stereo not drawn) | pIC50 | 6.00 to 7.00
COc1nc(-c2cccc(-c3cccc(Nc4nc(C)nc5cccnc45)c3C)c2Cl)ccc1CNCc1ncc[nH]1 | pIC50 | > 8.00
COc1nc(-c2cccc(-c3cccc(Nc4nc(C)nc5cccnc45)c3C)c2Cl)ccc1CN[C@H]1CNC(=O)C1 | pIC50 | > 8.00

In: Name the recorded pIC50 for `COc1nc(-c2cccc(-c3cccc(Nc4nc(C)nc5cccnc45)c3C)c2Cl)ccc1CN1CC(C)(O)C1` .
Out: > 8.00

In: Next up: `COc1cc(N)cc(OCc2cccc(-c3cccc(CO)c3C)c2C)n1`
Out: < 6.00

In: Next up: `COc1nc(-c2cccc(-c3cccc(Nc4nc(C)nc5cccnc45)c3C)c2Cl)ccc1CNCCO`
Out: > 8.00

In: Next up: `COc1nc(-c2cccc(-c3cccc(NC(=O)c4cn(C)c(=O)n(C)c4=O)c3C)c2Cl)ccc1CN1CCC(O)CC1`
Out: > 8.00

###

Several reports have described IC50 for human PD-L1 (Homo sapiens (Human), UniProt Q9NZQ7); a selection of those results is presented here.

compound | readoutType | reportedResult
COc1nc(OCc2cccc(-c3cccc(COc4ccc(CN[C@@H](CC(N)=O)C(=O)O)c(OC)n4)c3C)c2C)ccc1CN[C@@H](CC(N)=O)C(=O)O | IC50 | < 10 nM
COc1nc(OCc2cccc(-c3csc(COc4ccc(CNCCNC(C)=O)c(OC)n4)c3C)c2C)ccc1CNCCNC(C)=O | IC50 | < 10 nM
COc1nc(-c2cccc(-c3cccc(Nc4nc(C)nc5cccnc45)c3C)c2Cl)ccc1CN1CCC(O)CC1 | IC50 | < 10 nM
COc1nc(-c2cccc(-c3cccc(NC(=O)c4cn(C)c(=O)n(C)c4=O)c3Cl)c2Cl)ccc1CN1CC(C)(C(=O)O)C1 | IC50 | < 10 nM
COc1nc(-c2cccc(-c3cccc(Nc4nccc5nccnc45)c3Cl)c2Cl)ccc1CNC[C@@H]1CCC(=O)N1 | IC50 | < 10 nM
COc1nc(-c2cccc(-c3cccc(Nc4ncnc5cccnc45)c3Cl)c2Cl)ccc1CNC[C@@H]1CCC(=O)N1 | IC50 | < 10 nM

In: Name the recorded IC50 for `COc1nc(OCc2cccc(-c3cccc(COc4ccc(CN5CCCC[C@H]5C(=O)O)c(OC)n4)c3C)c2C)ccc1CN1CCCC[C@H]1C(=O)O` .
Out: < 10 nM

In: Next up: `COc1nc(-c2cccc(-c3cccc(NC(=O)c4cn(C)c(=O)n(C)c4=O)c3C)c2Cl)ccc1CN[C@@H]1COC[C@@H]1O`
Out: < 10 nM

In: Next up: `COc1nc(OCc2cccc(-c3cccc(COc4ccc(CN(CCO)CCO)c(OC)n4)c3Cl)c2Cl)ccc1CN(CCO)CCO`
Out: < 10 nM

In: Next up: `COc1nc(OCc2cccc(-c3cccc(COc4ccc(CNC(C)(CO)CO)c(OC)n4)c3C)c2C)ccc1CNC(C)(CO)CO`
Out: < 10 nM

In: Next up: `COc1nc(OCc2cccc(-c3cccc(COc4ccc(CNCCNC(C)=O)c(OC)n4)c3Cl)c2Cl)ccc1CNCCNC(C)=O`
Out: < 10 nM

In: Next up: `COc1nc(-c2cccc(-c3cccc(NC(=O)c4cn(C)c(=O)n(C)c4=O)c3Cl)c2Cl)ccc1CN1CC(O)C1`
Out: < 10 nM

In: Next up: `CCc1nc(-c2cccc(-c3cccc(Nc4nc(C)nc5cccnc45)c3C)c2Cl)ccc1CN[C@@H]1CCOC[C@@H]1O`
Out: < 10 nM

In: Next up: `COc1nc(-c2cccc(-c3cccc(NC(=O)c4cn(C)c(=O)n(C)c4=O)c3Cl)c2Cl)ccc1CNC[C@@H]1CCC(=O)N1`
Out: < 10 nM

In: Next up: `COc1nc(-c2cccc(-c3cccc(NC(=O)c4cn(C)c(=O)n(C)c4=O)c3C)c2Cl)ccc1CNCC1(O)CC1`
Out: 1000 to 10000 nM

In: Next up: `COc1nc(OCc2cccc(-c3cccc(COc4ccc(CN5CC[C@@H](NC(C)=O)C5)c(OC)n4)c3C)c2C)ccc1CN1CC[C@@H](NC(C)=O)C1`
Out: 10 to 100 nM

In: Next up: `COc1nc(-c2cccc(-c3cccc(Nc4nc(C)nc5cccnc45)c3C)c2Cl)ccc1CN1CC2(CCC(=O)N2)C1`
Out: < 10 nM
